ASSAYED SYSTEM: GABA-A receptor; alpha-5/beta-3/gamma-2 (Homo sapiens, UniProt P18507+P28472+P31644)
PROTOCOL: Inhibition of [3H]Ro-151788 binding to recombinant human gamma-aminobutyric-acid A receptor alpha-5-beta-3-gamma-2 subtype expressed in L (tk-) cells
Assay type: cell-based
MEASURE NAME: log10 of Ki (log10 of the value in nM)
The common logarithm of Ki in nM is what is listed.

Solved entries:
molecule=Cc1cc(COc2nn3c(-c4ccccc4)nnc3c3c2C2CCC3CC2)sn1 measure_name="log10 of Ki" readout_number=1.04
molecule=Cc1ccnc(COc2nn3c(-c4ccccc4)nnc3c3c2C2CCC3CC2)c1 measure_name="log10 of Ki" readout_number=0.30
molecule=Cc1cccnc1COc1nn2c(-c3ccccc3)nnc2c2c1C1CCC2CC1 measure_name="log10 of Ki" readout_number=-0.34
molecule=COc1cccnc1COc1nn2c(-c3ccccc3)nnc2c2c1C1CCC2CC1 measure_name="log10 of Ki" readout_number=-0.19
molecule=c1ccc(-c2nnc3c4c(c(OCc5cnc6ccccc6n5)nn23)C2CCC4CC2)cc1 measure_name="log10 of Ki" readout_number=0.59
molecule=Cn1nnc(COc2nn3c(-c4ccccc4)nnc3c3c2C2CCC3CC2)n1 measure_name="log10 of Ki" readout_number=0.81

Qu. Please report the recorded log10 of Ki for "N#Cc1cccc(COc2nn3c(-c4ccccc4)nnc3c3c2C2CCC3CC2)c1" .
Ans. 0.89

Qu. log10 of Ki for "CN(C)Cc1cccc(COc2nn3c(-c4ccccc4)nnc3c3c2C2CCC3CC2)c1" ?
Ans. 0.65

Qu. Could you tell me which log10 of Ki is on file for "c1ccc(-c2nnc3c4c(c(OCc5ccccn5)nn23)C2CCC4CC2)cc1" ?
Ans. 0.08

Qu. Entry "c1ccc(-c2nnc3c4c(c(OCc5nnc[nH]5)nn23)C2CCC4CC2)cc1" has what log10 of Ki?
Ans. 0.45

Qu. Look up log10 of Ki: "Cn1ccnc1COc1nn2c(-c3ccccc3)nnc2c2c1C1CCC2CC1"
Ans. -0.35

Qu. Tell me the measured log10 of Ki of "Cc1cccc(CCCOc2nn3c(-c4ccccc4)nnc3c3c2C2CCC3CC2)n1" , please.
Ans. 1.48

Qu. Which log10 of Ki is listed for "CCOc1cccnc1COc1nn2c(-c3ccccc3)nnc2c2c1C1CCC2CC1" ?
Ans. -0.44

----------
Listed here: items and their measured log10(Ki).
ASSAYED SYSTEM: GABA-A receptor; alpha-2/beta-3/gamma-2 (Homo sapiens, UniProt P18507+P28472+P47869)
PROTOCOL: Inhibition of [3H]Ro-151788 binding to recombinant human gamma-aminobutyric acid A receptor alpha-2-beta-3-gamma-2 subtype expressed in L (tk-) cells
A difference of one corresponds to tenfold Ki; all values are log10 with Ki in nM.

// below: answered molecules
molecular_string=Cn1ncnc1COc1nn2c(-c3ccccc3)nnc2c2c1C1CCC2CC1 assayed_system="GABA-A receptor; alpha-2/beta-3/gamma-2 (Homo sapiens, UniProt P18507+P28472+P47869)" readout_number=0.72
molecular_string=CCCn1cnc(COc2nn3c(-c4ccccc4)nnc3c3c2C2CCC3CC2)n1 assayed_system="GABA-A receptor; alpha-2/beta-3/gamma-2 (Homo sapiens, UniProt P18507+P28472+P47869)" readout_number=1.70
molecular_string=c1ccc(-c2nnc3c4c(c(OCc5nccs5)nn23)C2CCC4CC2)cc1 assayed_system="GABA-A receptor; alpha-2/beta-3/gamma-2 (Homo sapiens, UniProt P18507+P28472+P47869)" readout_number=1.54

Qu. Requested read-out: log10(Ki). Entry: "c1ccc(-c2nnc3c4c(c(OCc5ncccc5OCC5CC5)nn23)C2CCC4CC2)cc1"
Ans. 0.75

Qu. What value of measured log10(Ki) is listed for "O=C(COc1nn2c(-c3ccccc3)nnc2c2c1C1CCC2CC1)N1CCCC1" ?
Ans. 2.20

Qu. Entry "c1ccc(-c2nnc3c4c(c(OCc5cnc6ccccc6n5)nn23)C2CCC4CC2)cc1" : reported log10(Ki) = ?
Ans. 1.53

Qu. Look up log10(Ki) for this molecule: "c1ccc(COc2nn3c(-c4ccco4)nnc3c3c2C2CCC3CC2)nc1"
Ans. 2.04

Qu. Given "c1ccc(-c2nnc3c4c(c(OCc5ccc6ccccc6n5)nn23)C2CCC4CC2)cc1" , state its recorded log10(Ki).
Ans. 2.30

Qu. Fill in: log10(Ki) of "OCc1ccc(COc2nn3c(-c4ccccc4)nnc3c3c2C2CCC3CC2)cc1" is ___
Ans. 1.88

Qu. Could you tell me which log10(Ki) is on file for "CCCc1cccnc1COc1nn2c(-c3ccccc3)nnc2c2c1C1CCC2CC1" ?
Ans. 1.00

----------
ASSAYED SYSTEM: GABA-A receptor; alpha-1/beta-3/gamma-2 (Homo sapiens) (UniProt P14867+P18507+P28472)
PROTOCOL: Efficacy was measured as modulation of the current in response to GABA at hGABA alpha-1-beta-3-gamma-2 receptor expressed in Xenopus oocytes
Assay type: cell-based
EXPERIMENTAL CONDITIONS: Oocyte
Returns one of TRUE or FALSE; TRUE when Efficacy is >= 70%.

Below, 4 molecules whose answers are already recorded.
molecular_string=CCOc1cccnc1COc1nn2c(-c3ccccc3)nnc2c2c1C1CCC2CC1 assayed_system="GABA-A receptor; alpha-1/beta-3/gamma-2 (Homo sapiens) (UniProt P14867+P18507+P28472)" class_label=FALSE
molecular_string=CCCc1cccnc1COc1nn2c(-c3ccccc3)nnc2c2c1C1CCC2CC1 assayed_system="GABA-A receptor; alpha-1/beta-3/gamma-2 (Homo sapiens) (UniProt P14867+P18507+P28472)" class_label=FALSE
molecular_string=c1ccc(-c2nnc3c4c(c(OCc5ccncc5)nn23)C2CCC4CC2)cc1 assayed_system="GABA-A receptor; alpha-1/beta-3/gamma-2 (Homo sapiens) (UniProt P14867+P18507+P28472)" class_label=FALSE
molecular_string=COCCOc1cccnc1COc1nn2c(-c3ccccc3)nnc2c2c1C1CCC2CC1 assayed_system="GABA-A receptor; alpha-1/beta-3/gamma-2 (Homo sapiens) (UniProt P14867+P18507+P28472)" class_label=TRUE

Consider the record given below.
Qu. // inclusive: Efficacy at least 70%? input: "c1ccc(COc2nn3c(-c4cccnc4)nnc3c3c2C2CCC3CC2)nc1"
Ans. FALSE

----------
ASSAYED SYSTEM: GABA-A receptor; alpha-2/beta-3/gamma-2 (Homo sapiens) (UniProt P18507+P28472+P47869)
PROTOCOL: Efficacy was measured as modulation of the current in response to GABA at hGABA alpha-2-beta-3-gamma-2 receptor expressed in Xenopus oocytes
Assay type: cell-based
EXPERIMENTAL CONDITIONS: Oocyte
MEASURE NAME: Efficacy (%)
Use % as the unit, but write only the number.

Illustrative cases are given below, each with its answer.
molecular_string=Cc1ccc(-c2nnc3c4c(c(OCc5ccccn5)nn23)C2CCC4CC2)cc1 unit_spec=% readout_number=14
molecular_string=Cn1cnc(COc2nn3c(-c4ccccc4)nnc3c3c2C2CCC3CC2)n1 unit_spec=% readout_number=16

Qu. I'd like to know its Efficacy. The compound in question is "CN1C(=O)CN=C(c2ccccc2)c2cc(Cl)ccc21"
Ans. 138

Qu. Look up Efficacy: "c1ccc(-c2nnc3c4c(c(OCc5cccnn5)nn23)C2CCC4CC2)cc1"
Ans. 35

----------
ASSAYED SYSTEM: GABA-A receptor; alpha-5/beta-3/gamma-2 (Homo sapiens, UniProt P18507+P28472+P31644)
Sequence (P18507 whole entry): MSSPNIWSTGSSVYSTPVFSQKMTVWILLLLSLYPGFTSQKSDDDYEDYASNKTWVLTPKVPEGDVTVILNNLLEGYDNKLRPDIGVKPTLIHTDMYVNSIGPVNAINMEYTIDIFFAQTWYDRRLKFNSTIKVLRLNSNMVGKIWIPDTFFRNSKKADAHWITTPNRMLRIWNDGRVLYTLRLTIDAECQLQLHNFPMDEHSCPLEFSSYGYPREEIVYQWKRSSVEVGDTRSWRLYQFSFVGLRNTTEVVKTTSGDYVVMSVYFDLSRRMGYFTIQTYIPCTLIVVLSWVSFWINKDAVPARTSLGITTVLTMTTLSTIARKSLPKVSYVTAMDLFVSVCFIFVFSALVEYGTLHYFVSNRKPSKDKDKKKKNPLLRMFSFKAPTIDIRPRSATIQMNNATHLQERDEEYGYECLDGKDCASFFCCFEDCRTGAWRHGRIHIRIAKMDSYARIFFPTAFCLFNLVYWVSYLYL
Sequence (P28472 whole entry): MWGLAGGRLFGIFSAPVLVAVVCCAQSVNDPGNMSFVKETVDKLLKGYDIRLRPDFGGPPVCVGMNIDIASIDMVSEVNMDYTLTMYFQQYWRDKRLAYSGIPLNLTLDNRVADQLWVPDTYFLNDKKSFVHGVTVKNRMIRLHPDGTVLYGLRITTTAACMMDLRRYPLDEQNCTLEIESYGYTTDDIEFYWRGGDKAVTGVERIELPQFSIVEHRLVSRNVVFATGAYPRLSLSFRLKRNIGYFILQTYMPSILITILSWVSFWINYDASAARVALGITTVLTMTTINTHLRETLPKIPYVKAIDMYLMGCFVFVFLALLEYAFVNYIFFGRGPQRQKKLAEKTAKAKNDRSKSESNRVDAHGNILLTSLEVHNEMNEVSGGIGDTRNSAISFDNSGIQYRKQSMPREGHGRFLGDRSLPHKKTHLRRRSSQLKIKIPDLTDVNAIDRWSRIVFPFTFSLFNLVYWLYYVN
Sequence (P31644 whole entry): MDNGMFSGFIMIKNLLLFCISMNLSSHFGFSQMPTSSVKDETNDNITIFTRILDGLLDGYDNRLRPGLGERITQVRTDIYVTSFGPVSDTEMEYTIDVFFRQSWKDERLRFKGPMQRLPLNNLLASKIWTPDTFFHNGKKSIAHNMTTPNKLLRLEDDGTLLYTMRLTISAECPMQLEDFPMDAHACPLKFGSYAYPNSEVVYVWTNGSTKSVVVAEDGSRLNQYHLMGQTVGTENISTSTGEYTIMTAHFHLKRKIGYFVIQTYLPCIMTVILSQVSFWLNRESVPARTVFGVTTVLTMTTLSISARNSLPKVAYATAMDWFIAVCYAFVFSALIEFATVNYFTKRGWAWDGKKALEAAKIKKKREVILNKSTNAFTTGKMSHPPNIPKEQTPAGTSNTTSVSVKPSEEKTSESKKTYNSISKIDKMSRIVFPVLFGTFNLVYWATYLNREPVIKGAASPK
PROTOCOL: Inhibition of [3H]Ro-151788 binding to recombinant human gamma-aminobutyric-acid A receptor alpha-5-beta-3-gamma-2 subtype expressed in L (tk-) cells
Each item that follows carries a reported Ki.

molecular_string=c1ccc(-c2nnc3c4c(c(OCc5cnccn5)nn23)C2CCC4CC2)cc1 result="0.77 nM"

Qu. Param readout= Ki; system= GABA-A receptor; alpha-5/beta-3/gamma-2 (Homo sapiens, UniProt P18507+P28472+P31644); entry= "Cc1ccnc(COc2nn3c(-c4ccccc4)nnc3c3c2C2CCC3CC2)c1C" ; returns value.
Ans. 1 nM

Qu. # get_value(readout= Ki, system= GABA-A receptor; alpha-5/beta-3/gamma-2 (Homo sapiens, UniProt P18507+P28472+P31644)) for "c1ccc(-c2nnc3c4c(c(Oc5cccnc5)nn23)C2CCC4CC2)cc1"
Ans. > 500 nM

Qu. Request: Ki, test system GABA-A receptor; alpha-5/beta-3/gamma-2 (Homo sapiens, UniProt P18507+P28472+P31644), entry "COc1cccc(-c2nnc3c4c(c(OCc5ccccn5)nn23)C2CCC4CC2)c1"
Ans. 6 nM

Qu. Please state recorded Ki (tested on GABA-A receptor; alpha-5/beta-3/gamma-2 (Homo sapiens, UniProt P18507+P28472+P31644)) of "c1ccc(COc2nn3c(-c4cccnc4)nnc3c3c2C2CCC3CC2)nc1"
Ans. 2.7 nM

Qu. Kindly state the measured Ki obtained for "Cn1nnnc1COc1nn2c(-c3ccccc3)nnc2c2c1C1CCC2CC1" with GABA-A receptor; alpha-5/beta-3/gamma-2 (Homo sapiens, UniProt P18507+P28472+P31644).
Ans. 4.4 nM

Qu. Give GABA-A receptor; alpha-5/beta-3/gamma-2 (Homo sapiens, UniProt P18507+P28472+P31644) Ki for "c1ccc(COc2nn3c(N4CCOCC4)nnc3c3c2C2CCC3CC2)nc1"
Ans. > 1000 nM

Qu. Query Ki on GABA-A receptor; alpha-5/beta-3/gamma-2 (Homo sapiens, UniProt P18507+P28472+P31644) for "CCCn1ncnc1COc1nn2c(-c3ccccc3)nnc2c2c1C1CCC2CC1"
Ans. 0.19 nM
